assay: Absorption and distribution: concentration in blood and organs after oral administration, bioassay by cup method; format: in vivo; details: rat; rats, fasted, 10 mg/kg oral, serum, 8 hr after administration; Mean ± S.D. (n=5); read-out: Concentration in organs: Serum
Structures can show the parent of a compound that is named as a salt.
concentration at 8 h reference
Output spec: scalar in ng/mL, unitless text.

>>> df
                                   compound         assay_readout  observed_result
0  CCNCC1CCN(c2c(F)cc3c(=O)c(C(=O)O)cn(C4CC4)c3c2Cl)C1 (centres unmarked) [Example 13]  concentration at 8 h              140

Attention now turns to another entry.
Request: Recall and state the measured concentration at 8 h for CCNCC1CCN(c2c(F)cc3c(=O)c(C(=O)O)cn(C4CC4)c3c2F)C1 (centres unmarked) [Example 2, hydrochloride] .
Result: 120
